Measured values drawn from patent US9206432B2 for this set.

# Tested on: lacZ under control of the tetA promoter (PtetA) in E. coli KM3
# Type: cell-based
# measurement-parameters: Table 4; rimsulfuron 20 ppm; 48 hrs at 30° C.
Overview of recorded relative β-galactosidase activity, inducer Rs for various molecules

# molecule, observed-result
data = [
    ("L1-38: SU-responsive TetR(B) variant, library L1 hit (protein, Sulfonylurea responsive repressor L1-38) MGSRLDKSKVINSALELLNEVGIEGLTTRKLAQKLGVEQPTLYWHVKNKRALLDALAIEMADRHHTHFCPLEGESWQDFLRNNAKSMRCALLSHRDGAKVWLGTAWTEKQYETTENMLAFLCQQGFSLENALYAWRAVTMFTLGCVLRDQEWQVAKEERETPTTDSMPPLLRQALELGDHQGAEPAFLFGLELIICGLEKQLKCESGS", 9.5),
]

Requested read-out: relative β-galactosidase activity, inducer Rs. Entry: L1-22: SU-responsive TetR(B) variant, library L1 hit, SEQ ID NO: 7 (protein, Sulfornylurea responsive repressor L1-22) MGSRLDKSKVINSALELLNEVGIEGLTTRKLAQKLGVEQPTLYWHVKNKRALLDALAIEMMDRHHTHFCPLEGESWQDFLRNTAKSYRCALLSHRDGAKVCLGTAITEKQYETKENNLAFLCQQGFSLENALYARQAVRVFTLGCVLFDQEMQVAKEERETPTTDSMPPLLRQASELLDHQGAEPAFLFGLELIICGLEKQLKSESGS 0.1
